- systemUnderTest: recombinant GST-GK (Homo sapiens)
- Sequence (P35557 1-465): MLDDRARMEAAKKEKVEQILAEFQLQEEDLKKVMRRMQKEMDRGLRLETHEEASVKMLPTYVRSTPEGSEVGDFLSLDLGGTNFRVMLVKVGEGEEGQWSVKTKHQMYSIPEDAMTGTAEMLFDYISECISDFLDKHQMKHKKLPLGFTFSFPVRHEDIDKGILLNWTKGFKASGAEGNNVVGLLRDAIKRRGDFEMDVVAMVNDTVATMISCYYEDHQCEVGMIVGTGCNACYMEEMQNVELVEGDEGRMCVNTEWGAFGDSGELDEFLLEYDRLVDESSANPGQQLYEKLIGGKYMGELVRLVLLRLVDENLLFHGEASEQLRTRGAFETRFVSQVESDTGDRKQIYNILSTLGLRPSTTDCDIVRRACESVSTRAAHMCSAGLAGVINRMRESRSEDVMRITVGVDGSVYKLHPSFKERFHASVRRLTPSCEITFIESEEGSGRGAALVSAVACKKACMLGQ
- methodSummary: activation of recombinant GST-GK in vitro (primary enzyme assay)
- Assay type: biochemical
- testConditions: concentration of compound that produces a 50% increase in the activity of GK; read-out: EC50 in the in vitro assay measuring the activation of recombinant GST-GK
endpointLabel: EC50

Requested read-out: EC50. Entry: COc1ccc2nc(NC(=O)[C@H](CC3CCCC3)c3ccc(S(=O)(=O)N(CCC(=O)O)Cc4ccccc4)cc3)sc2n1
~271 nM

Origin of the recorded values: patent US8252931B2
